Data provenance is patent US10111854B2.

- Test system: RAW264.7 cells
- Measurement Notes: Reactive oxygen species (ROS) level, DCFDA, RAW264.7
- Format: cell-based, murine
- Condition Parameters: 10 μM, 20 hr
Consider the cut-off 0.9 fold. If the recorded RAW264.7 ROS Level, Relative fold (RF) is strictly smaller, the label is yes; if not, the label is no.

Study these solved cases before continuing.
Molecule	Target Entity	Discrete Label
CC(C)(C)OO [tert-butyl hydroperoxide]	RAW264.7 cells	no
C[C@@H]1[C@H](O)[C@@H](C)/C=C/C=C/C=C/C=C/C=C/C=C/C=C/[C@H](O[C@@H]2O[C@H](C)[C@@H](O)[C@H](N)[C@@H]2O)C[C@@H]2O[C@](O)(C[C@@H](O)C[C@@H](O)[C@H](O)CC[C@@H](O)C[C@@H](O)CC(=O)O[C@H]1C)C[C@H](O)[C@H]2C(=O)O	RAW264.7 cells	no
N=C(N)c1ccc(OCCCCCOc2ccc(C(=N)N)cc2)cc1	RAW264.7 cells	yes

Next:
Ask | Please let me know if "O=c1cc(-c2ccc(OCCOCCN(Cc3ccccn3)Cc3ccccn3)cc2)oc2ccccc12" shows RAW264.7 ROS Level, Relative fold (RF) below 0.9 fold.
Reply | no
